Sourced from ChEMBL document CHEMBL1150374

# Test system: Mus musculus
# Assay Name: Anticonvulsant activity against maximal electroshock-induced seizures in mouse model at 300 mg/kg, ip after 4 hrs
# Format: functional, organism-based
# Set-up: dose 300 mg/kg
Activity calls are given as the source filed them. The rule behind the calls is not given here.
Reply using exactly one outcome from y = active, n = inactive

Look up the recorded call for CC(C(O)c1ccccc1)N(C)C(=O)C1C(C)(C)C1(C)C (configuration not stated) in this test.
n

Look up the recorded call for CC(=O)c1ccc(NC(=O)C2C(C)(C)C2(C)C)cc1 in this test.
y

Look up the recorded call for CC1(C)C(C(=O)NCc2ccc(F)cc2)C1(C)C in this test.
n

Look up the recorded call for Cc1cccc(C)c1OCC(C)NC(=O)C1C(C)(C)C1(C)C (configuration not stated) in this test.
n

Look up the recorded call for CC1(C)C(C(=O)NCCc2c[nH]c3ccccc23)C1(C)C in this test.
n

Look up the recorded call for CC(CNC(=O)C1C(C)(C)C1(C)C)c1ccccc1 (configuration not stated) in this test.
n

Look up the recorded call for CC1(C)C(C(=O)NCc2ccccc2Cl)C1(C)C in this test.
n

----------
# Assay Name: Toxicity in orally dosed rat by rotarod test
# Type: organism-based
# Condition Info: in vivo, po
Reported Metric: TD50 (mg/kg)
Answers are plain numbers, in mg/kg.

Documented TD50 of NS(=O)(=O)Cc1noc2ccccc12 [ZONISAMIDE] : 192
